B1: library; a variant is named by its letters at N, in order (parent)
chain: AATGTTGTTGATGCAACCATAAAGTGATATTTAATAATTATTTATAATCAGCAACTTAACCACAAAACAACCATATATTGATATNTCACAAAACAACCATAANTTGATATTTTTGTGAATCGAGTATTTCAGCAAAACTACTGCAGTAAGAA

Variants of: B1
EXPERIMENT NOTES: relative integration efficiency (T-LR orientation) vs wild-type transposon end (log2 (normalized fold change)); transposon end mutated: left end; higher = more efficient transposition
SETUP CONDITIONS: with VchCAST RNA-guided transposition machinery (E. coli BL21(DE3) host, lacZ target)
# relative integration efficiency (log2) listing for each entry below

Worked set:
INSERT INTO measurements (variant_code, experimental_readout, result_value) VALUES
  ('CG C18G C72G C98G', 'relative integration efficiency (log2)', -0.915),
  ('CG C14G C68G C94G', 'relative integration efficiency (log2)', -2.2),
  ('CG A93C C94A', 'relative integration efficiency (log2)', -0.406);

Please find the next variant below.
I have this variant here, CG A96T , and I need its recorded relative integration efficiency (log2).
-0.52
